SYSTEM TESTED: MMP9 (Homo sapiens, UniProt P14780)
Construct: endogenous in cells; enzyme purified from culture medium
Sequence (P14780 107-707 limits assumed): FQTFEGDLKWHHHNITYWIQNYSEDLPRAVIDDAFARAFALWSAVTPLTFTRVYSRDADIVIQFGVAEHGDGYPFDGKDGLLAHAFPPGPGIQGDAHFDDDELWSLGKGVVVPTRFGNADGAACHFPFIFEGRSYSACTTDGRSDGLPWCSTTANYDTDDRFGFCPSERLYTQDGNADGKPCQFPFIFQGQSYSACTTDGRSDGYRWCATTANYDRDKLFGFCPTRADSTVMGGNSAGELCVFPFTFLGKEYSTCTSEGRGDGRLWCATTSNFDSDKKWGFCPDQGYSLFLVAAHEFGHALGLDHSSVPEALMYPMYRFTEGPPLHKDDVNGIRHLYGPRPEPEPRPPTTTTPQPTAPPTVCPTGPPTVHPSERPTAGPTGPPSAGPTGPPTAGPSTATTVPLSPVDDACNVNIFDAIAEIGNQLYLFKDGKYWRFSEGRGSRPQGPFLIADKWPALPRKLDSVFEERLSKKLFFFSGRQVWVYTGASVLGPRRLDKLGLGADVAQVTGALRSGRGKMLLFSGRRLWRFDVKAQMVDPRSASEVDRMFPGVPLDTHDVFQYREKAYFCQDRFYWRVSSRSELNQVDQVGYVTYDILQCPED
ASSAY OVERVIEW: Assay of MMP9, fluorogenic peptide substrate
CONDITION SUMMARY: activated MMP9 from THP1 cells, 0.5 nM; substrate 25 μM
Mark Y only when IC50 stays strictly below 6 nM. Values equal to the cut-off are N.

>  <COMPOUND>
C=CCCOc1ccc(S(=O)(=O)N(CC(=O)NO)Cc2ccc(-n3ccnc3)cc2)cc1 [Example 80]

>  <GROUP LABEL>
Y

$$$$
>  <COMPOUND>
O=C(CN(Cc1ccc(-n2cncn2)cc1)S(=O)(=O)c1ccc(OCc2ccoc2)cc1)NO [Example 82c]

>  <GROUP LABEL>
N

$$$$
>  <COMPOUND>
C=CCCOc1ccc(S(=O)(=O)N(CC(=O)NO)Cc2ccc(-n3cncn3)cc2)cc1 [Example 79]

>  <GROUP LABEL>
Y

$$$$
>  <COMPOUND>
COc1ccc(CN(CC(=O)NO)S(=O)(=O)c2ccc(OCCCCl)cc2)cc1 [Example 68]

>  <GROUP LABEL>
Y

$$$$
>  <COMPOUND>
C=CCCOc1ccc(S(=O)(=O)N(CC(=O)NO)Cc2cccc(F)n2)cc1 [Example 83a]

>  <GROUP LABEL>
Y

$$$$
>  <COMPOUND>
O=C(CN(Cc1ccc(-n2cncn2)cc1)S(=O)(=O)c1ccc(OCCC2CC2)cc1)NO [Example 82a]

>  <GROUP LABEL>
N

$$$$
>  <COMPOUND>
C=CCCOc1ccc(S(=O)(=O)N(CC(=O)NO)Cc2ccc(N3CCOCC3)cc2)cc1 [Example 81]

>  <GROUP LABEL>
N

$$$$
>  <COMPOUND>
C=CCCOc1ccc(S(=O)(=O)N(CC(=O)NO)Cc2ccc(N3CCCC3)cc2)cc1 [Example 84a]

>  <GROUP LABEL>
N

$$$$

----------
This document collects IC50 values reported for MT1-MMP (Homo sapiens).

>  <COMPOUND>
COc1ccc(CN(CC(=O)NO)S(=O)(=O)c2ccc(OCCCCl)cc2)cc1 [Example 68]

>  <IC50, nM>
5.2

$$$$
>  <COMPOUND>
O=C(CN(Cc1ccc(-n2cncn2)cc1)S(=O)(=O)c1ccc(OCc2ccoc2)cc1)NO [Example 82c]

>  <IC50, nM>
10.7

$$$$
>  <COMPOUND>
O=C(NO)[C@@H](Cc1ccccc1)N(Cc1ccc(Cl)cc1)S(=O)(=O)c1ccc(OCCCF)cc1 [Example 30]

>  <IC50, nM>
12.7

$$$$
>  <COMPOUND>
C=CCCOc1ccc(S(=O)(=O)N(Cc2cccc(OC)c2)[C@@H](C(=O)NO)C(C)C)cc1 [Example 13]

>  <IC50, nM>
5.5

$$$$
>  <COMPOUND>
O=C(CN(Cc1ccc(-n2cncn2)cc1)S(=O)(=O)c1ccc(OCCC2CC2)cc1)NO [Example 82a]

>  <IC50, nM>
1.8

$$$$
>  <COMPOUND>
COc1cccc(CN([C@H](C)C(=O)NO)S(=O)(=O)c2ccc(OCCCCl)cc2)c1 [Example 15]

>  <IC50, nM>
3.7

$$$$
>  <COMPOUND>
C=CCCOc1ccc(S(=O)(=O)N(CC(=O)NO)Cc2ccc(N3CCCC3)cc2)cc1 [Example 84a]

>  <IC50, nM>
20.4

$$$$
>  <COMPOUND>
C=CCCOc1ccc(S(=O)(=O)N(CC(=O)NO)Cc2cccc(F)n2)cc1 [Example 83a]

>  <IC50, nM>
0.3

$$$$
